Experiment: HUVEC growth inhibition – cell-based, human, primary screen (AID 575);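 also: 100% = median of untreated cell wells with 0.1% DMSO on each plate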
Settings: HUVEC proliferation, CellTiter-Glo luminescence, 72 h; at 10 µM; active compounds read low
property-measured: viability (%)

> print(dat)
                                    molecule  measured.value
 1          Nc1ccc(Sc2nnnn2-c2ccccc2)c(Cl)c1             101
 2       CC(C)Oc1ccc2c(=O)c(-c3ccccc3)coc2c1              87
 3     CCOc1ccc2nc(SCC(=O)Nc3ncccn3)[nH]c2c1            97.4
 4  COc1ccc(C(=O)N2CCN(C(=O)c3ccco3)CC2)cc1OC            87.2
 5    COc1cc(Cn2c(-c3nonc3N)nc3ccccc32)ccc1C            38.9
 6    Cc1cccc(C(=O)N(C)c2nnc(-c3ccncc3)s2)c1            92.5
 7  CCOC(=O)C1CN(S(=O)(=O)c2ccc(C)cc2)CCN1S(=O)(=O)c1ccc(C)cc1 (stereo not drawn)             101
 8  CCOc1ccc(NS(=O)(=O)c2ccc(OCC(=O)N3CCCC3)cc2)cc1             102
 9  COc1ccc(-c2ccc(-c3noc(-c4ccccc4)n3)c(OC)n2)cc1            68.3
10      CN(C)C(=O)CN(C)S(=O)(=O)c1ccc(Cl)cc1            98.9
11                O=C(Nc1ccc(Cl)cc1)N1CCSCC1            97.6
12               CCN(CCCc1ccccc1)CCCc1ccccc1            77.6
13  Cc1cc(C(F)(F)F)nc(SCC(=O)NC2=NC(=O)C(C)S2)n1 (stereo not drawn)              96
14  CN(C)c1ccc(C=NCC2(O)CCOC(C)(C)C2)cc1 (stereo not drawn)            91.8
15  CCOC(=O)c1ccccc1NC1CC(=O)N(c2ccccc2C)C1=O (stereo not drawn)             101
16  CCOC(=O)CCNC(=O)Nc1ccc2nc(C)n(Cc3ccccc3Cl)c(=O)c2c1            92.9
17  CC(C)CC(OC(=O)c1cccs1)C(=O)NCc1ccco1 (stereo not drawn)             103
18  CC1CNCCN1S(=O)(=O)c1cccc2cnccc12 (stereo not drawn)            84.4
19  Cc1cc(C(=O)COC(=O)c2n[nH]c3ccccc23)c(C)n1C            90.4
20  CCOC(=O)CNC(=O)CSc1nc(N(C)C)nc(N2CCOCC2)n1            98.1
21  Cc1c(N=C2SCC(=O)N2c2c(C)n(C)n(-c3ccccc3)c2=O)c(=O)n(-c2ccccc2)n1C             113
22  O=C(O)c1cccc(NC(=O)C23CC4CC(C2)CC(n2cnc(Cl)n2)(C4)C3)c1             105
23           O=C(O)c1cc(-c2ccccc2)nc2ccccc12            92.7

----------
Assay: growth inhibitors of H69AR lung tumor, primary screen, human, duplicate replicates (AID 580);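 also: 100% = mean luminescence of untreated wells and 0% = no signal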
Details: H69AR lung tumor cells viability, ATP luminescence, 72 h; at 10 µM; active compounds read low
Labels assigned by viability range: lower segment: < 80%; middle segment: ≥ 80% and < 90%; upper segment: ≥ 90%

> print(dat)
                                   molecule        category
1       CC(C)(Oc1ccc(Cl)cc1)C(=O)NCc1ccncc1   upper segment
2  CCOC(=O)c1cccc(NC(=O)C2CCN(S(=O)(=O)c3cccs3)CC2)c1   lower segment
3        COc1cccc(OCCSc2nnc3sc4ccccc4n23)c1  middle segment
4  Cn1c(=O)n(Cc2ccccc2)c(=O)c2c1nc(NCC1CCCO1)n2Cc1ccccc1 (stereo unspecified)   lower segment
5  CS(=O)(=O)N(CC(=O)NCc1ccncc1)Cc1ccc(Cl)cc1   upper segment
6            COC(=O)Oc1c(Br)c(=O)oc2ccccc12  middle segment
7        Cc1nc(-c2ccc(NC(=O)c3cccs3)cc2)cs1   lower segment
8  O=C(NC1CCCC1)C(c1cccs1)N(Cc1ccco1)C(=O)Cn1nnc(-c2cccs2)n1 (stereo unspecified)   upper segment
9              CC(=O)CC(=O)Nc1ccccc1NC(C)=O   upper segment

----------
Reported differential viability (reversal) values follow for various molecules
Experiment: reversal of MRP1-mediated doxorubicin resistance, pilot screen, H69AR cells, doxorubicin co-treatment (AID 601)
Conditions: H69AR cells + 2 uM doxorubicin, CellTiter-Glo, 72 h; at 10 µM; active compounds read high
property-measured: differential viability (reversal) (%)

> print(dat)
                                    molecule                  property.measured  measured.value
 1  CCOc1cc(C2C(C#N)=C(N)Oc3n[nH]c(CC)c32)ccc1OCCN1CCOCC1 (stereo unspecified)  differential viability (reversal)              11
 2  Cn1cccc1-c1nc2ccc(NC(=O)c3ccco3)cc2[nH]1  differential viability (reversal)           -4.33
 3  CCOC(=O)c1cccc(NC(=O)C2CCN(S(=O)(=O)c3cccs3)CC2)c1  differential viability (reversal)           -7.91
 4                    CCn1nccc1C(=O)Nc1nccs1  differential viability (reversal)              10
 5  CC(C)NC(=O)c1ccccc1NC(=O)CCS(=O)(=O)Cc1ccccc1  differential viability (reversal)           -1.34
 6  CCCCNC(=O)CSc1nc2ccc(N3CCOCC3)cc2c(=O)n1CCc1ccccc1  differential viability (reversal)            18.1
 7  Cc1cccc2cc(CN(Cc3nnnn3C3CCCC3)C3CCCCC3)c(=O)[nH]c12  differential viability (reversal)           0.525
 8  CC(C)(C)n1ncc2c(=O)n(CC(=O)NCc3ccc(F)cc3)cnc21  differential viability (reversal)           -59.8
 9  Cc1cccc(NC(=O)c2cc(NC(=O)c3ccco3)ccc2N2CCCCC2)c1  differential viability (reversal)            17.8
10  CC(C)(C)c1cc(NS(=O)(=O)c2ccc3c(c2)OCCO3)on1  differential viability (reversal)           -3.41
11     CCOC(=O)c1nnc2cc(-c3ccc(Br)cc3)nn2c1C  differential viability (reversal)             6.1

----------
Reported viability values follow for various compounds
Experiment: SK-BR-3 cell growth inhibitors, pilot screen, 24 h, human (AID 572);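 also: compound exposure lasted between 18 and 24 h rather than exactly 24 h; 100% = carrier-treated control wells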
Settings: SK-BR-3 viability, CellTiter-Glo luminescence, at 10 µM, active compounds read low
property-measured: viability (%)

> print(dat)
                                    compound  uom  measured.value
 1         Cc1cccc(C)c1NC(=O)COC(=O)c1nonc1N    %              79
 2  COc1ccc(C(C(C(=O)c2cccs2)N2CCOCC2)N2CCOCC2)cc1OC (stereo unspecified)    %             102
 3  NC(=O)C1CCN(c2nc(-c3ccccc3)nc3ccccc23)CC1    %             114
 4  COCCn1nnnc1C(c1cc2cc(C)cc(C)c2[nH]c1=O)N1CCN(c2ccccc2F)CC1 (stereo unspecified)    %             102
 5  Cc1cc2c(c(=O)n1C)C(Cc1ccccc1)C(C#N)=C(N)O2 (stereo unspecified)    %              95
 6  CC(=O)OC(C(=O)NC1CCCCC1)c1ccncc1 (stereo unspecified)    %              88
 7                            C1CNCCNCCNCCN1    %             101
 8  O=C(Nc1ccc2nn(-c3ccccc3)nc2c1)c1ccc(Br)o1    %            67.5
 9  Cc1ccc2c(c1)-c1c(cnn1CC(=O)Nc1ccccc1N1CCN(C)CC1)CO2    %            93.5
10            O=C(OCC(=O)c1ccccc1Br)c1ccccn1    %             142
11  CN1C(C(=O)Nc2ccccn2)=C(O)c2ccccc2S1(=O)=O    %             115
12  COc1ccc(S(=O)(=O)N2CCCC(C(=O)NCc3ccccn3)C2)cc1 (stereo unspecified)    %             146
13  CC1Cc2ccccc2N1C(=O)COC(=O)Cn1nnc(-c2ccccc2)n1 (stereo unspecified)    %             110
14         CC(C)COc1ccc(C(=O)OCCN2CCOCC2)cc1    %            98.5
15  O=C(NCc1ccco1)c1cccc(S(=O)(=O)N2CCCCC2)c1    %             110
16  Cc1ccccc1NS(=O)(=O)c1cc(C(=O)N2CCCC2)ccc1C    %             108
17  CC1=C(C(=O)NCc2ccccn2)C2(CCC(C)CC2)OC1=O (stereo unspecified)    %            94.5
18  O=C(Cn1[nH]c(=O)c2ccccc2c1=O)OCC(=O)N1CCCc2ccccc21    %              90
19               CCN(CCCc1ccccc1)CCCc1ccccc1    %              76
20  O=C(CN1CCN(c2nc(-c3ccc(F)cc3)cs2)CC1)NCc1ccc2c(c1)OCO2    %             175
21  COc1ccc(CCN(Cc2cc3cccc(C)c3[nH]c2=O)C(=O)N2CCCC2)cc1OC    %             106
22          CC1(C)Cc2c(sc3c2C2=NCCN2C=N3)CS1    %              87
23  CCCCC[C@H](O)/C=C/C1=C(CCCCCCC(=O)O)C(=O)CC1    %             109
24                  CCOC(=O)CSc1nn(C)c(=S)s1    %            97.5
25  NS(=O)(=O)c1cc2c(cc1Cl)NC(CSCc1ccccc1)=NS2(=O)=O    %             115
26  COc1ccc(Cl)cc1NC(=O)CCN1CCN(c2ccccc2C)CC1    %              70
27  CCOC(=O)N1CCC(Nc2c(-c3ccc(C)cc3)c(=O)c2=O)CC1    %            88.5
28  O=C(COC(=O)C12CC3CC(CC(C3)C1)C2)NCc1ccco1    %             101
29      CCOC(=O)CSc1nnc2n1C(C)(C)Cc1ccccc1-2    %             110
30  CCn1cnc2sc(C(=O)Nc3ccc4c(c3)OCO4)c(C)c2c1=O    %             107
31  COc1ccc(CCN2C(=O)CC(N3CCOCC3)C2=O)cc1 (stereo unspecified)    %              88
32  O=C(Nc1ccccc1-c1nc2ccccc2o1)c1ccc2c(c1)OCCO2    %             112
33  CCC(=O)N(Cc1ccco1)c1nc(-c2cc(OC)ccc2OC)cs1    %             105
34  O=C(NCC1COc2ccccc2O1)c1ccc(NC(=O)c2ccco2)cc1 (stereo unspecified)    %            85.5
35        O=C(c1cnc2sccn2c1=O)N1CCc2ccccc2C1    %              95
36  CCOC(=O)C1=C(C)NC(C)=C(C(=O)OC)C1c1cccc([N+](=O)[O-])c1 (stereo unspecified)    %              68
37  c1ccc(-c2cc(-c3nc(-c4ccccn4)no3)c3ccccc3n2)cc1    %             139
38  Cc1occc1C(=O)Nc1ccc(S(=O)(=O)N2CCN(C)CC2)cc1    %              71
39  O=C(NC(C(=O)c1ccccc1)N1CCOCC1)c1cccs1 (stereo unspecified)    %              87
40  CCOC(=O)CN1CC23C=CC(O2)C(C(=O)NCc2ccc(F)cc2)C3C1=O (stereo unspecified)    %              88
41                   NC(N)=NC(N)=NCCc1ccccc1    %             103
42  CSc1nc2ccc(Nc3nc(N4CCOCC4)nc(N4CCOCC4)n3)cc2s1    %            62.5
43  O=C(Nc1ncc2c(n1)CC(c1ccccc1)CC2=O)c1ccco1 (stereo unspecified)    %             102
44  COc1cc(-c2noc(-c3ccccc3C(=O)NCc3ccco3)n2)cc(OC)c1OC    %              79
45  CC(=O)c1ccccc1NS(=O)(=O)c1c(C)nn(-c2ccccc2)c1C    %              99
46  Cc1[nH]c2ccccc2c1Cc1nnc(SCC(=O)NCc2ccco2)o1    %              93
